- System: MOLT-4
- experimental.protocol: NCI tumour cell line growth inhibition, 48 h
The source made the active and inactive calls. Cut-off read from the data, not from the text of the source: active = GI50 up to about 1.1 µM and inactive = higher.
Entries and their measured GI50 follow.

Below, 3 compounds whose answers are already recorded.
COc1c(Cl)nc2ccccc2c1N=[N+]=[N-] = 19.2 µM (inactive)
CC(NC(=O)c1ccc(NP(=O)(OCc2ccc([N+](=O)[O-])o2)N(C)CCCCCl)cc1)c1ccc(OCC2CCCCC2)c(C(N)=O)c1 (centres undefined) = 9.71 µM (inactive)
O=[N+]([O-])c1ccc(Cl)c(CNc2ncnc3c2ncn3C2CCCCO2)c1 (centres undefined) = 26.1 µM (inactive)

// moving on: another record for GI50
Entry COc1ccc(CCCNC(=O)Cc2ccccc2CO)cc1OC , system MOLT-4: what GI50 was measured?
> 100 µM (inactive)
